Target: CV S-protein construct 6 trimer TP31001F (SARS-CoV-2, UniProt P0DTC2 14-1208)
Experiment: SPR
In this section, each of the binders is paired with its reported Kd.
Readout type: Kd (pM)

>>> test_result("variant 6-20 (Fc fusion, VHH-Fc) VHH: EVQLVESGGGLVQPGGSLRLSCAASGSTLPYHAMGWFRQAPGKEREFVAAITWNGASTSYADSVKGRFTISADNSKNTAYLQMNSLKPEDTAVYYCARDRYYDTSASYFESETWGQGTLVTVSS")
300
>>> test_result("variant 6-2 (Fc fusion) VHH: EVQLVESGGGLVQPGGSLRLSCAASGFTMSSSWMGWFRQAPGKEREFVTVISGVGTSYADSVKGRFTISADNSKNTAYLQMNSLKPEDTAVYYCARGPDSSGYGFDYWGQGTLVTVSS")
1200
>>> test_result("variant 6-32 (Fc fusion) VHH: EVQLVESGGGLVQPGGSLRLSCAASGFTLDYYDMGWFRQAPGKEREFVALISWSGGSTYYADSVKGRFTISADNSKNTAYLQMNSLKPEDTAVYYCATDFYGWGTRERDAFDIWGQGTLVTVSS")
100
>>> test_result("variant 6-4 (Fc fusion) VHH: EVQLVESGGGLVQPGGSLRLSCAASGFTRDYYTMGWFRQAPGKEREFVAAISRSGSLTSYADSVKGRFTISADNSKNTAYLQMNSLKPEDTAVYYCANLAYYDSSGYYDYWGQGTLVTVSS")
500
